system: DU-145; test: Cytotoxicity against human DU145 cells after 72 hrs by MTT assay; format: functional, cell-based; conditions: DU-145, 72 h
Below, each of the molecules is paired with its reported IC50 value.
MEASUREMENT NAME: IC50 (µg/mL)

MOLECULE: C[C@]12CC[C@H]3[C@@H](CC[C@@H]4C[C@@H](O)CC[C@@]43C=O)[C@@]1(O)CC[C@@H]2c1ccc(=O)oc1
CENSOR SYMBOL: =
EXPERIMENTAL RESULT: 0.0046

MOLECULE: C[C@]12CC[C@H]3[C@@H](CC[C@@H]4C[C@@H](O)CC[C@@]43CO)[C@]13O[C@@H]3C[C@@H]2c1ccc(=O)oc1
CENSOR SYMBOL: =
EXPERIMENTAL RESULT: 0.38

MOLECULE: C[C@]12CC[C@H]3[C@@H](CC[C@@H]4C[C@@H](O)CC[C@@]43C=O)[C@]13OC3[C@H](O)[C@@H]2c1ccc(=O)oc1 (stereo not given in full)
CENSOR SYMBOL: >
EXPERIMENTAL RESULT: 1

MOLECULE: CC(=O)O[C@H]1C[C@]2(O)[C@@H]3CC[C@]4(O)C[C@@H](O)CC[C@]4(C)[C@H]3CC[C@]2(C)[C@H]1c1ccc(=O)oc1
CENSOR SYMBOL: =
EXPERIMENTAL RESULT: 0.024

MOLECULE: C[C@]12[C@H](CC[C@@H]3[C@@H]1CC[C@]1(C)[C@@H](c4ccc(=O)oc4)CC[C@]31O)C[C@@H](O)C[C@H]2O
CENSOR SYMBOL: =
EXPERIMENTAL RESULT: 0.005

###

test system: SF-268; assay: Cytotoxicity against human SF268 cells after 72 hrs by MTT assay; format: functional, cell-based; conditions: SF-268, 72 h

MOLECULE: CC(=O)O[C@H]1C[C@]2(O)[C@@H]3CC[C@]4(O)C[C@@H](O)CC[C@]4(C)[C@H]3CC[C@]2(C)[C@H]1c1ccc(=O)oc1
SCALE UNIT: µg/mL
CENSOR SYMBOL: =
IC50: 0.033

MOLECULE: C[C@]12CC[C@H](OC=O)C[C@H]1CC[C@@H]1[C@@H]2CC[C@]2(C)[C@@H](c3ccc(=O)oc3)C[C@H]3O[C@]132
SCALE UNIT: µg/mL
CENSOR SYMBOL: =
IC50: 0.38

MOLECULE: C[C@]12[C@H](CC[C@@H]3[C@@H]1CC[C@]1(C)[C@@H](c4ccc(=O)oc4)CC[C@]31O)C[C@@H](O)C[C@H]2O
SCALE UNIT: µg/mL
CENSOR SYMBOL: =
IC50: 0.0044

MOLECULE: C[C@]12CC[C@H]3[C@@H](CC[C@@H]4C[C@@H](O)CC[C@@]43C=O)[C@@]1(O)CC[C@@H]2c1ccc(=O)oc1
SCALE UNIT: µg/mL
CENSOR SYMBOL: =
IC50: 0.0047

MOLECULE: C[C@]12CC[C@H]3[C@@H](CC[C@@H]4C[C@@H](O)CC[C@@]43C=O)[C@]13OC3[C@H](O)[C@@H]2c1ccc(=O)oc1 (stereo partly drawn)
SCALE UNIT: µg/mL
CENSOR SYMBOL: >
IC50: 1

MOLECULE: CC(=O)O[C@H]1[C@H]2O[C@]23[C@@H]2C[C@H](O)[C@@H]4C[C@@H](O)CC[C@]4(C)[C@H]2CC[C@]3(C)[C@H]1c1ccc(=O)oc1
SCALE UNIT: µg/mL
CENSOR SYMBOL: =
IC50: 0.32

MOLECULE: C[C@]12CC[C@H](O)C[C@H]1CC[C@@H]1[C@@H]2C[C@@H](O)[C@]2(C)[C@@H](c3ccc(=O)oc3)C[C@H]3O[C@]132
SCALE UNIT: µg/mL
CENSOR SYMBOL: =
IC50: 0.046

MOLECULE: C[C@]12CC[C@H]3[C@@H](CC[C@@H]4C[C@@H](O)CC[C@@]43CO)[C@]13O[C@@H]3C[C@@H]2c1ccc(=O)oc1
SCALE UNIT: µg/mL
CENSOR SYMBOL: =
IC50: 0.25
